Reference for the values: ChEMBL document CHEMBL3862002

readout label: IC50 (µM)
Provide the reading as a plain figure in µM.

QUERY: Under Fumarate reductase (Ascaris suum, UniProt F1KRD8), report IC50 for CC1=C[C@](C)(O)[C@H](/C(C)=C/C=C/C=C/C=C/[C@]2(C)[C@H]3OC(=O)[C@]2(C)C(=O)[C@@H]3C)O[C@H]1C
RESULT: 0.85

QUERY: Under Fumarate reductase (Ascaris suum, UniProt F1KRD8), report IC50 for CC1=C[C@@](C)(O)[C@@H](C)O[C@@H]1/C(C)=C/C=C/C=C/C=C/C(C)=C/[C@]1(C)[C@H]2OC(=O)[C@]1(C)C(=O)[C@@H]2C
RESULT: 0.47

QUERY: Under Fumarate reductase (Ascaris suum, UniProt F1KRD8), report IC50 for Cc1cc(/C=C/c2ccc3cc(N(C)C)ccc3[n+]2C)c(C)n1-c1ccccc1 [PYRVINIUM PAMOATE]
RESULT: 0.5

QUERY: Under Fumarate reductase (Ascaris suum, UniProt F1KRD8), report IC50 for CO[C@]1(C)C=C(C)[C@H](/C(C)=C/C=C/C=C/C=C/[C@]2(C)[C@H]3OC(=O)[C@]2(C)C(=O)[C@@H]3C)O[C@H]1C
RESULT: 1.35

QUERY: Under Fumarate reductase (Ascaris suum, UniProt F1KRD8), report IC50 for C=C1C=C(C)[C@H](/C(C)=C/C=C/C=C/C=C/[C@]2(C)[C@H]3OC(=O)[C@]2(C)C(=O)[C@@H]3C)O[C@H]1C
RESULT: 0.84

QUERY: Under Fumarate reductase (Ascaris suum, UniProt F1KRD8), report IC50 for CC1=C[C@@](C)(O)[C@@H](C)O[C@H]1/C(C)=C/C=C/C=C/C=C/C(C)=C/[C@]1(C)[C@H]2OC(=O)[C@]1(C)C(=O)[C@@H]2C
RESULT: 0.0024

QUERY: Under Fumarate reductase (Ascaris suum, UniProt F1KRD8), report IC50 for CO[C@@]1(C)C=C(C)[C@H](/C(C)=C/C=C/C=C/C=C/[C@]2(C)[C@H]3OC(=O)[C@]2(C)C(=O)[C@@H]3C)O[C@H]1C
RESULT: 0.84

###

For each entry below, report its IC50 value.
Experiment: Inhibition of NADH oxidase in pig heart sub-mitochondrial particles using NADH as substrate after 3 mins measured every 15 sec for 10 mins under aerobic condition
Design: species or system Sus scrofa
Provide the reading as a plain figure in µM.

QUERY: Complete the entry with IC50 for CC1=C[C@](C)(O)[C@H](/C(C)=C/C=C/C=C/C=C/[C@]2(C)[C@H]3OC(=O)[C@]2(C)C(=O)[C@@H]3C)O[C@H]1C
RESULT: 56

QUERY: Complete the entry with IC50 for C=C1C=C(C)[C@H](/C(C)=C/C=C/C=C/C=C/[C@]2(C)[C@H]3OC(=O)[C@]2(C)C(=O)[C@@H]3C)O[C@H]1C
RESULT: 35

QUERY: Complete the entry with IC50 for CO[C@@]1(C)C=C(C)[C@H](/C(C)=C/C=C/C=C/C=C/[C@]2(C)[C@H]3OC(=O)[C@]2(C)C(=O)[C@@H]3C)O[C@H]1C
RESULT: 100

QUERY: Complete the entry with IC50 for CO[C@]1(C)C=C(C)[C@H](/C(C)=C/C=C/C=C/C=C/[C@]2(C)[C@H]3OC(=O)[C@]2(C)C(=O)[C@@H]3C)O[C@H]1C
RESULT: 145
